- Tested on: 997726-040-R-J2-PDC tumor spheroids, viability
- Protocol: Anticancer human tumor 997726-040-R-J2-PDC patient-derived squamous cell lung carcinoma cell line growth inhibition [PI3K]
- Protocol conditions: second compound 3.16 µM; first compound 1 µM; stronger effect = lower value; spheroids with HUVEC and MSC

[
  {
    "Molecule": "Cn1nccc1Nc1nccc(-c2ccn(C(CO)c3ccc(Cl)c(F)c3)c(=O)c2)n1 (configuration not stated) + CC(Nc1ncnc2nc[nH]c12)c1cc2cccc(Cl)c2c(=O)n1-c1ccccc1",
    "Reading unit": "%",
    "viability, T/C": 55.6
  },
  {
    "Molecule": "Cn1ncc(Cl)c1-c1cc(C(=O)NC(CN)Cc2cccc(F)c2)sc1Cl (configuration not stated) + Cc1nc(NC(=O)N2CCCC2C(N)=O)sc1-c1ccnc(C(C)(C)C(F)(F)F)c1",
    "Reading unit": "%",
    "viability, T/C": 10
  },
  {
    "Molecule": "CC(Cn1ccc(-c2ccc(C#N)c(Cl)c2)n1)NC(=O)c1cc(C(C)O)[nH]n1 (configuration not stated) + Cc1nc(NC(=O)N2CCCC2C(N)=O)sc1-c1ccnc(C(C)(C)C(F)(F)F)c1",
    "Reading unit": "%",
    "viability, T/C": 33.4
  },
  {
    "Molecule": "CC(Cn1ccc(-c2ccc(C#N)c(Cl)c2)n1)NC(=O)c1cc(C(C)O)[nH]n1 (configuration not stated) + CC(Nc1ncnc2nc[nH]c12)c1cc2cccc(Cl)c2c(=O)n1-c1ccccc1",
    "Reading unit": "%",
    "viability, T/C": 68.9
  },
  {
    "Molecule": "C[C@@H](NC(=O)c1ncnc(N)c1Cl)c1ncc(C(=O)Nc2cc(C(F)(F)F)c(Cl)cn2)s1 + CC(Nc1ncnc2nc[nH]c12)c1cc2cccc(Cl)c2c(=O)n1-c1ccccc1",
    "Reading unit": "%",
    "viability, T/C": 79.2
  },
  {
    "Molecule": "CCCS(=O)(=O)Nc1ccc(F)c(C(=O)c2c[nH]c3ncc(-c4ccc(Cl)cc4)cc23)c1F + CC(Nc1ncnc2nc[nH]c12)c1cc2cccc(Cl)c2c(=O)n1-c1ccccc1",
    "Reading unit": "%",
    "viability, T/C": 85.4
  },
  {
    "Molecule": "CC(C)NCC(C(=O)N1CCN(c2ncnc3c2C(C)CC3O)CC1)c1ccc(Cl)cc1 (configuration not stated) + Cc1nc(NC(=O)N2CCCC2C(N)=O)sc1-c1ccnc(C(C)(C)C(F)(F)F)c1",
    "Reading unit": "%",
    "viability, T/C": 16.5
  }
]

---

- System: 997726-040-R-J2-PDC tumor spheroids, viability
- Protocol: Anticancer human tumor 997726-040-R-J2-PDC cell line growth inhibition [PI3K];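 further: spheroids exposed to compounds for seven days before readout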
- Protocol conditions: second compound 10 µM; first compound 0.1 µM; stronger effect = lower value; spheroids with HUVEC and MSC
We label by threshold. Values of viability, T/C strictly beneath 40% are yes. Values of 40% and up are no.

[
  {
    "Compound": "Cn1nccc1Nc1nccc(-c2ccn(C(CO)c3ccc(Cl)c(F)c3)c(=O)c2)n1 (stereo unspecified) + CC(Nc1ncnc2nc[nH]c12)c1cc2cccc(Cl)c2c(=O)n1-c1ccccc1",
    "Assigned category": "no"
  },
  {
    "Compound": "Cn1ncc(Cl)c1-c1cc(C(=O)NC(CN)Cc2cccc(F)c2)sc1Cl (stereo unspecified) + Cc1nc(NC(=O)N2CCCC2C(N)=O)sc1-c1ccnc(C(C)(C)C(F)(F)F)c1",
    "Assigned category": "yes"
  },
  {
    "Compound": "C#Cc1c(F)ccc2cc(O)cc(-c3ncc4c(N5CC6CCC(C5)N6)nc(OCC56CCCN5CC(F)C6)nc4c3F)c12 (stereo unspecified) + CC(Nc1ncnc2nc[nH]c12)c1cc2cccc(Cl)c2c(=O)n1-c1ccccc1",
    "Assigned category": "no"
  },
  {
    "Compound": "C=CC(=O)N1CCN(c2nc(=O)n(-c3c(C)ccnc3C(C)C)c3nc(-c4c(O)cccc4F)c(F)cc23)C(C)C1 (stereo unspecified) + CC(Nc1ncnc2nc[nH]c12)c1cc2cccc(Cl)c2c(=O)n1-c1ccccc1",
    "Assigned category": "no"
  },
  {
    "Compound": "CC(Cn1ccc(-c2ccc(C#N)c(Cl)c2)n1)NC(=O)c1cc(C(C)O)[nH]n1 (stereo unspecified) + CC(Nc1ncnc2nc[nH]c12)c1cc2cccc(Cl)c2c(=O)n1-c1ccccc1",
    "Assigned category": "no"
  },
  {
    "Compound": "CC(=O)c1c(C)c2cnc(Nc3ccc(N4CCNCC4)cn3)nc2n(C2CCCC2)c1=O + CC(Nc1ncnc2nc[nH]c12)c1cc2cccc(Cl)c2c(=O)n1-c1ccccc1",
    "Assigned category": "no"
  },
  {
    "Compound": "CC(C)NCC(C(=O)N1CCN(c2ncnc3c2C(C)CC3O)CC1)c1ccc(Cl)cc1 (stereo unspecified) + CC(Nc1ncnc2nc[nH]c12)c1cc2cccc(Cl)c2c(=O)n1-c1ccccc1",
    "Assigned category": "no"
  },
  {
    "Compound": "CC(C)n1nc(-c2ccc3oc(N)nc3c2)c2c(N)ncnc21 + Cc1nc(NC(=O)N2CCCC2C(N)=O)sc1-c1ccnc(C(C)(C)C(F)(F)F)c1",
    "Assigned category": "yes"
  },
  {
    "Compound": "CCCS(=O)(=O)Nc1ccc(F)c(C(=O)c2c[nH]c3ncc(-c4ccc(Cl)cc4)cc23)c1F + Cc1nc(NC(=O)N2CCCC2C(N)=O)sc1-c1ccnc(C(C)(C)C(F)(F)F)c1",
    "Assigned category": "yes"
  },
  {
    "Compound": "CC1(C)CCC(CN2CCN(c3ccc(C(=O)NS(=O)(=O)c4ccc(NCC5CCOCC5)c([N+](=O)[O-])c4)c(Oc4cnc5[nH]ccc5c4)c3)CC2)=C(c2ccc(Cl)cc2)C1 + Cc1nc(NC(=O)N2CCCC2C(N)=O)sc1-c1ccnc(C(C)(C)C(F)(F)F)c1",
    "Assigned category": "yes"
  },
  {
    "Compound": "CC1(C)CCC(Nc2ncc(C(F)(F)F)c(-c3c[nH]c4c(P(C)(C)=O)c(C#N)ccc34)n2)CN1 (stereo unspecified) + CC(Nc1ncnc2nc[nH]c12)c1cc2cccc(Cl)c2c(=O)n1-c1ccccc1",
    "Assigned category": "yes"
  },
  {
    "Compound": "CNC(=O)c1ccc(N2C(=S)N(c3ccc(C#N)c(C(F)(F)F)c3)C(=O)C2(C)C)cc1F + CC(Nc1ncnc2nc[nH]c12)c1cc2cccc(Cl)c2c(=O)n1-c1ccccc1",
    "Assigned category": "no"
  },
  {
    "Compound": "CC1(C)CCC(CN2CCN(c3ccc(C(=O)NS(=O)(=O)c4ccc(NCC5CCOCC5)c([N+](=O)[O-])c4)c(Oc4cnc5[nH]ccc5c4)c3)CC2)=C(c2ccc(Cl)cc2)C1 + CC(Nc1ncnc2nc[nH]c12)c1cc2cccc(Cl)c2c(=O)n1-c1ccccc1",
    "Assigned category": "no"
  },
  {
    "Compound": "Cn1ncnc1[C@H]1c2n[nH]c(=O)c3cc(F)cc(c23)N[C@@H]1c1ccc(F)cc1 + CC(Nc1ncnc2nc[nH]c12)c1cc2cccc(Cl)c2c(=O)n1-c1ccccc1",
    "Assigned category": "no"
  },
  {
    "Compound": "CCCS(=O)(=O)Nc1ccc(F)c(C(=O)c2c[nH]c3ncc(-c4ccc(Cl)cc4)cc23)c1F + CC(Nc1ncnc2nc[nH]c12)c1cc2cccc(Cl)c2c(=O)n1-c1ccccc1",
    "Assigned category": "no"
  },
  {
    "Compound": "CNC(=O)c1ccc(N2C(=S)N(c3ccc(C#N)c(C(F)(F)F)c3)C(=O)C2(C)C)cc1F + Cc1nc(NC(=O)N2CCCC2C(N)=O)sc1-c1ccnc(C(C)(C)C(F)(F)F)c1",
    "Assigned category": "yes"
  },
  {
    "Compound": "C[C@@H](NC(=O)c1ncnc(N)c1Cl)c1ncc(C(=O)Nc2cc(C(F)(F)F)c(Cl)cn2)s1 + Cc1nc(NC(=O)N2CCCC2C(N)=O)sc1-c1ccnc(C(C)(C)C(F)(F)F)c1",
    "Assigned category": "yes"
  },
  {
    "Compound": "CC1(C)CCC(Nc2ncc(C(F)(F)F)c(-c3c[nH]c4c(P(C)(C)=O)c(C#N)ccc34)n2)CN1 (stereo unspecified) + Cc1nc(NC(=O)N2CCCC2C(N)=O)sc1-c1ccnc(C(C)(C)C(F)(F)F)c1",
    "Assigned category": "yes"
  },
  {
    "Compound": "Cn1nccc1Nc1nccc(-c2ccn(C(CO)c3ccc(Cl)c(F)c3)c(=O)c2)n1 (stereo unspecified) + Cc1nc(NC(=O)N2CCCC2C(N)=O)sc1-c1ccnc(C(C)(C)C(F)(F)F)c1",
    "Assigned category": "yes"
  },
  {
    "Compound": "C[C@@H](NC(=O)c1ncnc(N)c1Cl)c1ncc(C(=O)Nc2cc(C(F)(F)F)c(Cl)cn2)s1 + CC(Nc1ncnc2nc[nH]c12)c1cc2cccc(Cl)c2c(=O)n1-c1ccccc1",
    "Assigned category": "no"
  }
]
